- Assay Target: T1, human immunoglobulin E (hIgE) (human, UniProt P01854-1 1-428)
- T1 construct: also called human IgE; Native IgE (Abcam)
- T1 sequence (P01854 whole entry): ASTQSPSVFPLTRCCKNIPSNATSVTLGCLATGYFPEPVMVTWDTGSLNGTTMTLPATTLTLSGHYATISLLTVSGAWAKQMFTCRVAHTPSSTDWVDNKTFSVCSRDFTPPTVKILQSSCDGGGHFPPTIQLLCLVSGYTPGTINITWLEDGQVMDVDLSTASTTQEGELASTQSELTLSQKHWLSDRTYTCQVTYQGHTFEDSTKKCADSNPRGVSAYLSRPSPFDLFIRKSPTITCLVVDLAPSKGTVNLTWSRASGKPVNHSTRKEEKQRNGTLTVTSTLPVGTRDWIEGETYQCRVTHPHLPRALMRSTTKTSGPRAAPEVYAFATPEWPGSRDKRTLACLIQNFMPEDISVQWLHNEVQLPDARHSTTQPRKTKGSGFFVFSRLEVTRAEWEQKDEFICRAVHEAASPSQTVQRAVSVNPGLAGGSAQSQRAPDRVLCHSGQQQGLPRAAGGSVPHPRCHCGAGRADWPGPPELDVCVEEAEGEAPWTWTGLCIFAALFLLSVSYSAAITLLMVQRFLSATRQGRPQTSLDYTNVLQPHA
- Assay Explanation: competition ELISA, hIgE to hFcεRIα
Listing of entries alongside the reported IC50.
Express it in nM; write the number only.

>>> recorded_value("OMA VH15 - VL3 (antibody, V domains shown) VH: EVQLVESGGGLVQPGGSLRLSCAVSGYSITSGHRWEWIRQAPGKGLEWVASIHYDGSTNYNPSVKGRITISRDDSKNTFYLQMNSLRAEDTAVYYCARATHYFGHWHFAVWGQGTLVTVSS VL: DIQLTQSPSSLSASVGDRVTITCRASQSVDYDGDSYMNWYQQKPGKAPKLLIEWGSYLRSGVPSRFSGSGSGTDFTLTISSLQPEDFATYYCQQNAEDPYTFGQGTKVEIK")
0.0803
>>> recorded_value("OmaVH15G55H - VL3S31H (antibody, V domains shown) VH: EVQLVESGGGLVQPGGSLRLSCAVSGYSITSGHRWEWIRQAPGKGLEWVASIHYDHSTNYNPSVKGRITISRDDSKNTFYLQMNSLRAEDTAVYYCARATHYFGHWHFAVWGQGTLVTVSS VL: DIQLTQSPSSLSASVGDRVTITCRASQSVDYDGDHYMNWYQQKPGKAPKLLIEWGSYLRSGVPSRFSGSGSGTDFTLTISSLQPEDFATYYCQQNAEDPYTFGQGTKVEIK")
0.485

Reported IC50 of OmaVH15G55HW100b - VL3 (antibody, V domains shown) VH: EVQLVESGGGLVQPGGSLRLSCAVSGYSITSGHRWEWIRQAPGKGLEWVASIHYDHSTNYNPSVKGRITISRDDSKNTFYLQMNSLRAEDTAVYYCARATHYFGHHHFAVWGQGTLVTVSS VL: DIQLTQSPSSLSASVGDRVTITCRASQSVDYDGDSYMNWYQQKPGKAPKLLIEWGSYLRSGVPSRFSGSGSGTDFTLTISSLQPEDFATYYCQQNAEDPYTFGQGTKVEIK : 23.2

Data credit: patent US20220177604A1
